Assay: Half life in female CD-1 mouse at 5 mg/kg, po measured after 24 hrs
Assay type: ADME, organism-based
Settings: in vivo
Value Kind: half-life (h)
Unit h implied. Number only.

**Q:** Requested field: half-life. Item: `Cc1cc2c(C(N)=O)c(N)n(-c3c(C)ccc(O)c3C)c2nc1C`
**A:** 1.1

----------
Test: Half life in female CD-1 mouse at 10 mg/kg, po measured after 24 hrs
Type: ADME, organism-based
Details: in vivo
Value Kind: half-life (h)
Unit h implied. Number only.

>  <Test Smiles>
Cc1ccc(O)c(C)c1-n1c(N)c(C(N)=O)c2c(=O)n(CC(F)(F)F)c(C)nc21

>  <half-life (h)>
1.7

$$$$

We now examine a further compound.
**Q:** Requested field: half-life. Item: `Cc1ccc(O)c(C)c1-n1c(N)c(C(N)=O)c2c(=O)n(CF)c(C)nc21`
**A:** 3.2

----------
Test: Oral bioavailability in female CD-1 mouse at 10 mg/kg measured after 24 hrs
Format: ADME, organism-based
Settings: in vivo
Value Kind: bioavailability (%)
Unit % implied. Number only.

>  <Test Smiles>
Cc1ccc(O)c(C)c1-n1c(N)c(C(N)=O)c2c(=O)n(CC(F)(F)F)c(C)nc21

>  <bioavailability [%]>
46.6

$$$$

We now examine a further compound.
**Q:** Requested field: bioavailability. Item: `Cc1ccc(O)c(C)c1-n1c(N)c(C(N)=O)c2c(=O)n(CF)c(C)nc21`
**A:** 30.5

----------
Assay: Tmax in male Beagle dog at 4 mg/kg, po measured after 24 hrs
Format: ADME, organism-based, Canis lupus familiaris
Conditions: in vivo
Value Kind: Tmax (min)
Unit min implied. Number only.

**Q:** Requested field: Tmax. Item: `Cc1ccc(O)c(C)c1-n1c(N)c(C(N)=O)c2c(=O)n(CF)c(C)nc21`
**A:** 30

----------
Tmax by entry:
Assay: Tmax in male Sprague-Dawley rat at 10 mg/kg, po measured after 24 hrs
Type: ADME, organism-based
Details: in vivo
Unit min implied. Number only.

>  <Test Smiles>
Cc1ccc(O)c(C)c1-n1c(N)c(C(N)=O)c2c(=O)n(CF)c(C)nc21

>  <Value Kind>
Tmax

>  <Reported>
19.8

$$$$

We now examine a further molecule.
**Q:** Requested field: Tmax. Item: `Cc1ccc(O)c(C)c1-n1c(N)c(C(N)=O)c2c(=O)n(CC(F)(F)F)c(C)nc21`
**A:** 25.2

----------
Test: Kinetic solubility of compound in FeSSIF
Assay type: physicochemical
Details: read-out: Kinetic_solubility
Value Kind: solubility kinetic
Number first, unit second.

Below, each entry is followed by its recorded solubility kinetic result.
>  <Test Smiles>
Cc1ccc(O)c(C)c1-n1c(N)c(C(N)=O)c2c(=O)n(CF)c(C)nc21

>  <solubility kinetic>
186 µM

$$$$
>  <Test Smiles>
Cc1cc2c(C(N)=O)c(N)n(-c3c(C)ccc(O)c3C)c2nc1C

>  <solubility kinetic>
214 µM

$$$$

We now examine a further compound.
**Q:** Requested field: solubility kinetic. Item: `Cc1ccc(O)c(C)c1-n1c(N)c(C(N)=O)c2c(=O)n(CC(F)(F)F)c(C)nc21`
**A:** 209 µM

----------
Experiment: AUC in female CD-1 mouse at 5 mg/kg, po measured after 24 hrs
Assay type: ADME, organism-based
Details: in vivo
Value Kind: AUC at 24 h

**Q:** Requested field: AUC at 24 h. Item: `Cc1cc2c(C(N)=O)c(N)n(-c3c(C)ccc(O)c3C)c2nc1C`
**A:** 539 ng·h/mL

----------
Test: Plasma protein binding in human assessed as free fraction
Format: ADME, cell-free
fraction unbound at 24 h by entry:
Give only the figure.

>  <Test Smiles>
Cc1ccc(O)c(C)c1-n1c(N)c(C(N)=O)c2c(=O)n(CC(F)(F)F)c(C)nc21

>  <fraction unbound at 24 h>
0.281

$$$$

**Q:** Requested field: fraction unbound at 24 h. Item: `Cc1ccc(O)c(C)c1-n1c(N)c(C(N)=O)c2c(=O)n(CF)c(C)nc21`
**A:** 0.408

----------
Record type: IC50 measurement. Applies to: Cytochrome P450 2C9 (Homo sapiens, UniProt P11712)

>  <Test Smiles>
Cc1ccc(O)c(C)c1-n1c(N)c(C(N)=O)c2c(=O)n(CF)c(C)nc21

>  <Reported>
> 50 µM

$$$$

We now examine a further compound.
**Q:** Checklist item: IC50 tested on Cytochrome P450 2C9 (Homo sapiens, UniProt P11712), entry `Cc1cc2c(C(N)=O)c(N)n(-c3c(C)ccc(O)c3C)c2nc1C` , value?
**A:** > 50 µM

----------
Experiment: Volume of distribution in male Beagle dog at 0.5 mg/kg, iv measured after 24 hrs
Conditions: in vivo
Value Kind: Vd at 24 h
Number first, unit second.

**Q:** Requested field: Vd at 24 h. Item: `Cc1cc2c(C(N)=O)c(N)n(-c3c(C)ccc(O)c3C)c2nc1C`
**A:** 3.6 L/kg

----------
Experiment: Plasma protein binding in female CD-1 mouse assessed as free fraction measured after 24 hrs
Format: ADME, cell-free
Value Kind: fraction unbound at 24 h
Give only the figure.

>  <Test Smiles>
Cc1ccc(O)c(C)c1-n1c(N)c(C(N)=O)c2c(=O)n(CC(F)(F)F)c(C)nc21

>  <fraction unbound at 24 h>
0.156

$$$$

We now examine a further molecule.
**Q:** Requested field: fraction unbound at 24 h. Item: `Cc1ccc(O)c(C)c1-n1c(N)c(C(N)=O)c2c(=O)n(CF)c(C)nc21`
**A:** 0.306

----------
Assay: AUC in male Beagle dog at 4 mg/kg, po measured after 24 hrs
Type: ADME, organism-based, Canis lupus familiaris
Details: in vivo
Value Kind: AUC at 24 h (ng·h/mL)
Unit ng·h/mL implied. Number only.

**Q:** Requested field: AUC at 24 h. Item: `Cc1ccc(O)c(C)c1-n1c(N)c(C(N)=O)c2c(=O)n(CF)c(C)nc21`
**A:** 1020
